// values below are reported Kd
# target: T1, human TL1A (human, UniProt O95150 72-251, limits assumed)
# T1 construct: also called tumor necrosis factor-like cytokine 1A; TNFSF15
# T1 sequence (looked up): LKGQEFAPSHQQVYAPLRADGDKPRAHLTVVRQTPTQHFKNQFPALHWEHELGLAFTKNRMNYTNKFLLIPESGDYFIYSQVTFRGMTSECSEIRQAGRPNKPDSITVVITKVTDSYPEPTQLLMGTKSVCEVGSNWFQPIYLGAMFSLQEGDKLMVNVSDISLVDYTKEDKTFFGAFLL
# assay procedure: ELISA titration on plate-coated human TL1A, unpurified culture supernatant
Response body: numeric value in nM, unit text excluded.

Example cases with answers are listed next.
binder="A189 (antibody, IgG1, V domains shown) VH: QVQLVQSGAEVKKPGASVKVSCKASGFDIQDTYMHWVKQRPGQGLEWIGRIDPASGHTKYDPKFQVRVTMTTDTSTSTAYLELSSLRSEDTAVYYCARSGGLPDVWGQGTTVTVSS VL: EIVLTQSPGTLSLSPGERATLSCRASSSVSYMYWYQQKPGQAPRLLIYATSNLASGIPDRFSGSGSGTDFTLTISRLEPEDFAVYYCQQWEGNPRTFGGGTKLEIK" val=0.076
binder="A160 (antibody, IgG1, V domains shown) VH: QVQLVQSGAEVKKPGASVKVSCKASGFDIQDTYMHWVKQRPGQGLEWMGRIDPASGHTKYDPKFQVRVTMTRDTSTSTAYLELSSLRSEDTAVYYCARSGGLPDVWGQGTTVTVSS VL: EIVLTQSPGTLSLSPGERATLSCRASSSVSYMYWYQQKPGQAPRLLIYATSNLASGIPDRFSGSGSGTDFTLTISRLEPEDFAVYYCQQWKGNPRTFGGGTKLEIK" val=0.094
binder="A218 (antibody, IgG1, V domains shown) VH: QVQLVQSGAEVKKPGASVKVSCKASGFDIQDTYMHWVKQRPGQGLEWMGRIDPASGHTKYDPKFQVRVTITRDTSTSTAYMELSSLRSEDTAVYYCARSGGLPDVWGQGTTVTVSS VL: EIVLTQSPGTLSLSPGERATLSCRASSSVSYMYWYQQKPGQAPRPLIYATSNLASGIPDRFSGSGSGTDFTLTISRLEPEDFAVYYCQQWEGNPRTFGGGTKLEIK" val=0.051
binder="A185 (antibody, IgG1, V domains shown) VH: QVQLVQSGAEVKKPGASVKVSCKASGFDIQDTYMHWVKQRPGQGLEWIGRIDPASGHTKYDPKFQVRATMTRDTSTSTAYLELSSLRSEDTAVYYCARSGGLPDVWGQGTTVTVSS VL: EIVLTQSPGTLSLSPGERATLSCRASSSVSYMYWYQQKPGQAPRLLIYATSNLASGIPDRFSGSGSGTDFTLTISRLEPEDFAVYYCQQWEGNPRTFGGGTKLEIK" val=0.056

Challenge: Looking for the measured Kd of A204 (antibody, IgG1, V domains shown) VH: EVQLVQSGAEVKKPGASVKVSCKASGFDIQDTYMHWVRQAPGQGLEWMGRIEPASGHIKYDPKFQGRVTMTRDTSTSTAYMELSSLRSEDTAVYYCARSGGLPDWWGQGTTVTVSS VL: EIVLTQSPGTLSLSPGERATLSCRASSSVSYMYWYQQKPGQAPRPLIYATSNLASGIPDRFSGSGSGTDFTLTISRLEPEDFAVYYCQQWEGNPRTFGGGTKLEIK , can you help?
Response given: 0.053

Source listed as patent US20260216326A1.
